Tested on: HCT-116 human colon cancer xenografts
EXPERIMENT_NOTES: Tumor growth inhibition of HCT-116 human colon cancer xenografts in nude mice
Assay type: in vivo, Balb/c nude mice
EXPERIMENTAL_CONTEXT: Day 30; single IP injection (QD×1); D1 and D2 400 mg/kg, D3 350 mg/kg, D4 300 mg/kg
MEASUREMENT_LABEL: Tumor growth inhibition rate (TGI %)

molecule="CCCCOC(=O)Nc1ccn([C@H]2O[C@@H](COC(=O)CCC(=O)OC[C@H]3O[C@@H](n4ccc(NC(=O)OCCCC)nc4=O)C(F)(F)[C@@H]3O)[C@H](O)C2(F)F)c(=O)n1 (stereo in doubt) [Compound D2]" measurement_label="Tumor growth inhibition rate (TGI %)" measured_number=67.91
molecule="CCCCOC(=O)Nc1ccn(C2OC(COC(=O)CCCC(=O)OC[C@H]3O[C@@H](n4ccc(NC(=O)OCCCC)nc4=O)C(F)(F)[C@@H]3OC(=O)OCCCC)C(OC(=O)OCCCC)C2(F)F)c(=O)n1 (stereo in doubt) [Compound D1]" measurement_label="Tumor growth inhibition rate (TGI %)" measured_number=43.36
molecule=O=C(CCCC(=O)OC[C@H]1O[C@@H](n2ccc(NC(=O)OCc3ccccc3)nc2=O)C(F)(F)[C@@H]1O)OC[C@H]1O[C@@H](n2ccc(NC(=O)OCc3ccccc3)nc2=O)C(F)(F)[C@@H]1O measurement_label="Tumor growth inhibition rate (TGI %)" measured_number=82.93
molecule="CCCCOC(=O)Nc1ccn(C2OC(COC(=O)CCC(=O)OC[C@H]3O[C@@H](n4ccc(NC(=O)OCc5ccccc5)nc4=O)C(F)(F)[C@@H]3O)C(O)C2(F)F)c(=O)n1 (stereo in doubt)" measurement_label="Tumor growth inhibition rate (TGI %)" measured_number=72.14

The measurements presented in this section are drawn from patent US10351586B2.
